Origin of measurements: patent US20240352111A1

- target_of_assay: T1, hArtemin-MMH (human)
- T1 construct: also called hARTN.mmh; hARTN (A108-G220).mmh
- T1 chain: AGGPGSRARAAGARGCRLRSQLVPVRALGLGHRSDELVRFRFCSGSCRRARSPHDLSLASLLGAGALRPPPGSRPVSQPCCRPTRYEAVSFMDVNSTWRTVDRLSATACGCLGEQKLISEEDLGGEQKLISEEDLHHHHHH
- test_protocol: SPR Biacore T200, hArtemin-MMH captured by anti-myc mAb, mAb injected, 25 C
result_type: kon (M⁻¹ s⁻¹)
Expressed in M⁻¹ s⁻¹, but write only the number.

These recorded examples may help you get a feel for the data.
H4H33331P (antibody, human IgG4 S228P, kappa, V domains shown, Fully human antibody (human variable and constant domains) from a VELOCIMMUNE mouse; also called Artemin mAb; anti-ARTN antibody) VH: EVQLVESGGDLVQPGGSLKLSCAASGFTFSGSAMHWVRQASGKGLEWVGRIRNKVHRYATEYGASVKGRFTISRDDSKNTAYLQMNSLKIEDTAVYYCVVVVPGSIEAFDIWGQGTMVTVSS VL: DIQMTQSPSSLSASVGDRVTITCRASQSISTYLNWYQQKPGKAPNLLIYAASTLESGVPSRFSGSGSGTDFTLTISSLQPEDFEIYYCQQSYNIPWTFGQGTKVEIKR: 126000
H4H33349P (antibody, human IgG4 S228P, kappa, V domains shown, Fully human antibody; also called Artemin mAb; anti-ARTN antibody) VH: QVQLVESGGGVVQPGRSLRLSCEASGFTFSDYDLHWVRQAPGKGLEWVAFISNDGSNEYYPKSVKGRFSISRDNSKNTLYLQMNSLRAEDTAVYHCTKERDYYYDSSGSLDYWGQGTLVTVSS VL: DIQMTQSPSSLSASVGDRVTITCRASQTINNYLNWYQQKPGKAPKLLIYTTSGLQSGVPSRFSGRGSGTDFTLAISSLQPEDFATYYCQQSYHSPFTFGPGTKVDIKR: 497000
H4H33335P (antibody, human IgG4 S228P, kappa, V domains shown, Fully human antibody; also called Artemin mAb; anti-ARTN antibody) VH: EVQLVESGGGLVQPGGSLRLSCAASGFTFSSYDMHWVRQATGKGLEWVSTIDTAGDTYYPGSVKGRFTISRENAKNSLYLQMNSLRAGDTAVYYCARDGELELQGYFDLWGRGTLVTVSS VL: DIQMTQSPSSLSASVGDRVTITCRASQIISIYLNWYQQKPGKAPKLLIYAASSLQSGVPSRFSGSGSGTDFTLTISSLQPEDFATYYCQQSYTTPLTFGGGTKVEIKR: 85300

Alright, here's another binder for you.
Enquiry: # lookup: kon of H4H33336P (antibody, human IgG4 S228P, kappa, V domains shown, Fully human antibody; also called Artemin mAb; anti-ARTN antibody) VH: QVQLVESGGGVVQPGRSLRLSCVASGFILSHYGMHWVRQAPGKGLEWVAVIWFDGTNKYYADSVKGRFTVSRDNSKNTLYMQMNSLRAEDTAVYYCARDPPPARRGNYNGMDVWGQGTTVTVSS VL: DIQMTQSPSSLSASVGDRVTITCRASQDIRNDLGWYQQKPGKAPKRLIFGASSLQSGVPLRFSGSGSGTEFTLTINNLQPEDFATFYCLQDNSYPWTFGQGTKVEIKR
Return: 249000
